- assay.system: NMDA receptor
- experiment.description: [3H]CGS19755 radioligand binding to Triton-X-treated synaptosomal membranes of rat forebrain
- Design: species or system rat (male Sprague-Dawley)
- test.conditions: [3H]CGS19755 10 nM, ice-bath 30 min, mean, standard error, n=3
Criterion: IC50 strictly under 4 µM. Met: Condition met. Not met: Condition not met.

O=C(O)[C@H]1NC[C@@H]2CCC(CCSc3nn[nH]n3)[C@@H]21 (some centres unmarked): Condition not met
O=C(O)[C@H]1NC[C@@H]2CC[C@@H](Cc3nn[nH]n3)[C@@H]21 (relative stereo): Condition met
O=C(O)CCC1CC[C@H]2CN[C@H](C(=O)O)[C@@H]12 (some centres unmarked): Condition met
O=C(O)[C@H]1NC[C@@H]2CCC(CCOCc3nn[nH]n3)[C@@H]21 (some centres unmarked): Condition not met
O=C(O)C1NCC2CCC(CSc3nn[nH]n3)C21 (centres unmarked): Condition met
O=C(O)CC1CC[C@H]2CN[C@H](C(=O)O)[C@@H]12 (some centres unmarked): Condition met
O=C(O)[C@H]1NC[C@@H]2CCC(OCc3nn[nH]n3)[C@@H]21 (some centres unmarked): Condition not met

We next turn to a different compound, shown below.
Report whether reported IC50 is lower than 4 µM (strictly) for O=C(O)[C@H]1NC[C@@H]2CCC(CCc3nn[nH]n3)[C@@H]21 (some centres unmarked)
Condition not met

---

- assay.system: NMDA receptor
- experiment.description: [3H]MK-801 binding to well washed rat cortical membranes
- test.conditions: [3H]MK-801 2.5 nM, glutamate 0.001 μM and glycine 10 μM, 27° C., two hours, mean of three experiments
Reported IC50 values for a set of compounds
Just the number in µM, nothing appended.

Solved entries:
O=C(O)[C@H]1NC[C@@H]2CCC(Cc3nn[nH]n3)[C@@H]21 (stereo partly shown): 49.7
O=C(O)[C@H]1NC[C@@H]2CCC(CCc3nn[nH]n3)[C@@H]21 (stereo partly shown): 37.7

# return recorded IC50 for input O=C(O)[C@H]1NC[C@@H]2CC[C@H](Cc3nn[nH]n3)[C@@H]21 (relative stereo)
36.6

# return recorded IC50 for input O=C(O)C1NCC2CCC(CSc3nn[nH]n3)C21 (stereo not shown)
27.8

# return recorded IC50 for input O=C(O)[C@H]1NC[C@@H]2CC[C@@H](Cc3nn[nH]n3)[C@@H]21 (relative stereo)
47.3

# return recorded IC50 for input O=C(O)CCC1CC[C@H]2CN[C@H](C(=O)O)[C@@H]12 (stereo partly shown)
47.3

# return recorded IC50 for input O=C(O)CC1CC[C@H]2CN[C@H](C(=O)O)[C@@H]12 (stereo partly shown)
39

---

Reported pIC50 values for a set of compounds
- assay.system: NMDA receptor
- experiment.description: [3H]MK-801 binding to well washed rat cortical membranes
- test.conditions: [3H]MK-801 2.5 nM, glutamate 0.001 μM and glycine 10 μM, 27° C., two hours, mean of three experiments
pIC50: −log10 of the molar value.

O=C(O)[C@H]1NC[C@@H]2CCC(CCSc3nn[nH]n3)[C@@H]21 (stereo partly drawn): < 4.00
O=C(O)[C@H]1NC[C@@H]2CCC(OCc3nn[nH]n3)[C@@H]21 (stereo partly drawn): < 4.00

Let us examine a further case.
# return recorded pIC50 for input O=C(O)[C@H]1NC[C@@H]2CCC(CCOCc3nn[nH]n3)[C@@H]21 (stereo partly drawn)
< 4.00
